- Test system: transfected CHO cells expressing recombinant human monoclonal antibody (cell line 1)
- assay comment: 24-deep well culture, cell line 1: VCD, viability, titer, qP
- Type: cell-based, Chinese hamster
- condition label: Cell Line 1; 10 microM; D 4
The reader will find reported Viability values listed item by item below.
observed property: Viability (%)

| molecule | test result |
| --- | --- |
| OC1CCN(c2ccc(Nc3ncc4c5ccncc5n(C5CCCC5)c4n3)nn2)C1 (centres unmarked) | 79.61 |
| CC1CCC(n2c3cnccc3c3cnc(Nc4ccc(N5CCC6(CC5)CCS(=O)(=O)C6)nn4)nc32)CC1 (centres unmarked) | 72.16 |
| CN(C)C1CCN(c2ccc(Nc3ncc4c(n3)C3(C=CC(C)(C)CC3)c3cnccc3-4)nn2)CC1 (centres unmarked) | 86.93 |
| CN(C)C1CCN(c2ccc(Nc3ncc4c5ccncc5n(C5CCCC5)c4n3)nn2)CC1 | 78.70 |
| CC1CCC(n2c3cnccc3c3cnc(Nc4ccc(N5CCNC(C)C5)nn4)nc32)CC1 (centres unmarked) | 70.89 |

---

- Test system: transfected CHO cells expressing recombinant human monoclonal antibody (cell line 1)
- assay comment: 24-deep well culture, cell line 1: VCD, viability, titer, qP
- Type: cell-based, Chinese hamster
- condition label: Cell Line 1; 10 microM; D 3

| compound | Viability [%] |
| --- | --- |
| CN(C)C1CCN(c2ccc(Nc3ncc4c5ccncc5n(C5CCCC5)c4n3)nn2)CC1 | 84.46 |
| CC1CCC(n2c3cnccc3c3cnc(Nc4ccc(N5CCNC(C)C5)nn4)nc32)CC1 (centres unmarked) | 76.69 |
| CC1CCC(n2c3cnccc3c3cnc(Nc4ccc(N5CCC6(CC5)CCS(=O)(=O)C6)nn4)nc32)CC1 (centres unmarked) | 76.37 |
| CN(C)C1CCN(c2ccc(Nc3ncc4c(n3)C3(C=CC(C)(C)CC3)c3cnccc3-4)nn2)CC1 (centres unmarked) | 87.77 |
| OC1CCN(c2ccc(Nc3ncc4c5ccncc5n(C5CCCC5)c4n3)nn2)C1 (centres unmarked) | 81.90 |

---

The reader will find reported Titer values listed item by item below.
- Tested on: transfected CHO cells expressing recombinant human monoclonal antibody (cell line 1)
- assay comment: 24-deep well culture, cell line 1: VCD, viability, titer, qP
- Type: cell-based, Chinese hamster
- condition label: Cell Line 1; 5 microM; D 2

| compound | output unit | Titer |
| --- | --- | --- |
| CC1CCC(n2c3cnccc3c3cnc(Nc4ccc(N5CCC6(CC5)CCS(=O)(=O)C6)nn4)nc32)CC1 (stereo not shown) | g/L | 0.67 |
| OC1CCN(c2ccc(Nc3ncc4c5ccncc5n(C5CCCC5)c4n3)nn2)C1 (stereo not shown) | g/L | 0.66 |
| CC1CCC(n2c3cnccc3c3cnc(Nc4ccc(N5CCNC(C)C5)nn4)nc32)CC1 (stereo not shown) | g/L | 0.70 |
| CN(C)C1CCN(c2ccc(Nc3ncc4c5ccncc5n([C@H]5CC[C@H](C)CC5)c4n3)nn2)CC1 | g/L | 0.70 |

---

- Test system: transfected CHO cells expressing recombinant human monoclonal antibody (cell line 1)
- assay comment: 24-deep well culture, cell line 1: VCD, viability, titer, qP
- Type: cell-based, Chinese hamster
- condition label: Cell Line 1; 10 microM; D 4
- Method: Transfected CHO cells expressing a recombinant human monoclonal antibody (mAb) are cultured in 24-deep well plates with seeding density at 1×10^7/mL for five days. […] Compounds are further evaluated essentially as described in Example 2 herein. […] Additional parameters measure include the presence or absence of high molecular weight substances (usually an indicator of protein aggregation; expressed as % of the total protein); and the relative percentage of Mannose 5. […]
# strict inequality: Titer < 1 g/L yields YES, everything else yields NO

| compound | label value |
| --- | --- |
| CC1CCC(n2c3cnccc3c3cnc(Nc4ccc(N5CCC6(CC5)CCS(=O)(=O)C6)nn4)nc32)CC1 (centres unmarked) | YES |
| CN(C)C1CCN(c2ccc(Nc3ncc4c(n3)C3(C=CC(C)(C)CC3)c3cnccc3-4)nn2)CC1 (centres unmarked) | YES |
| OC1CCN(c2ccc(Nc3ncc4c5ccncc5n(C5CCCC5)c4n3)nn2)C1 (centres unmarked) | NO |
| CN(C)C1CCN(c2ccc(Nc3ncc4c5ccncc5n(C5CCCC5)c4n3)nn2)CC1 | NO |

Each recorded value in this set is attributed to patent US20180087079A1.
